The next entries give measured log10 of MIC for S. pneumoniae MMX 3031 cMefA.
Note the log scale: values are log10 of MIC expressed in µg/mL.

Consider the following illustrative entries.
CSC1O[C@H]([C@H](NC(=O)[C@H]2NC[C@@H]3C=C(c4cccc(F)c4)CCO[C@@H]23)[C@H](C)Cl)C(O)[C@@H](O)[C@H]1O (some centres unmarked) [FSA-511071]	-0.30
Cc1ccc(S(=O)(=O)OCC2O[C@H]([C@H](NC(=O)[C@H]3NC[C@@H]4CC=CCO[C@H]43)[C@@H](C)O)C(O)[C@@H](O)[C@H]2O)cc1 (some centres unmarked) [FSA-211030]	1.51
C[C@@H](O)[C@@H](NC(=O)[C@H]1NC[C@@H]2CC=CCO[C@H]21)[C@H]1OC(CN=[N+]=[N-])[C@H](O)[C@H](O)C1O (some centres unmarked) [FSA-211064]	1.20
CSC1O[C@H]([C@H](NC(=O)[C@H]2NC[C@H]3CC=CCO[C@H]32)[C@H](C)Cl)C(O)[C@@H](O)[C@H]1O (some centres unmarked) [FSA-507051]	0.00
COc1ccc([C@@H]2CCO[C@@H]3[C@H](CN[C@@H]3C(=O)N[C@H]([C@H](C)Cl)[C@H]3OC(SC)[C@H](O)[C@H](O)C3O)C2)cc1 (some centres unmarked) [FSA-512080c]	-0.92

Lab note: each compound below needs its log10 of MIC filled in.
1. CSC1O[C@H]([C@H](NC(=O)[C@H]2NC[C@@H]3C=C(c4ccc(F)cc4F)CCO[C@@H]23)[C@H](C)Cl)C(O)[C@@H](O)[C@H]1O (some centres unmarked) [FSA-511072]
2. CSC1O[C@H]([C@H](NC(=O)[C@H]2NC[C@@H]3CC=CCO[C@H]32)[C@H](C)Sc2ccc(-c3cccnc3)cc2)C(O)[C@@H](O)[C@H]1O (some centres unmarked) [FSA-213061]
3. CSC1O[C@H]([C@H](NC(=O)[C@H]2NC[C@@H]3C=C(c4ccc(C(F)(F)F)cc4)CCO[C@@H]23)[C@H](C)Cl)C(O)[C@@H](O)[C@H]1O (some centres unmarked) [FSA-507053]

stdout:
[-0.92, -0.90, -0.92]
